// data source = ChEMBL document CHEMBL1961873

target: Muscle, skeletal receptor tyrosine-protein kinase (Homo sapiens); conditions: at 1 µM;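 also: reported value is the mean percent inhibition of MuSK kinase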
Measurement label: inhibition (%)

[[record]]
compound = "CCCN1CCCC(c2ccc(Nc3nc(Nc4cc(F)ccc4C(N)=O)c4cc[nH]c4n3)c(OC)c2)C1 (centres undefined)"
measurement_label = "inhibition"
numeric_result = 12.2

[[record]]
compound = "COc1cc(Nc2nccc(-c3cnn4ncccc34)n2)cc(OC)c1"
measurement_label = "inhibition"
numeric_result = 42.5

[[record]]
compound = "c1ccc(Cc2nc3ccc(Nc4ncnc5ccccc45)cc3[nH]2)cc1"
measurement_label = "inhibition"
numeric_result = 3.78

[[record]]
compound = "Nc1nccc(-c2c(-c3ccc(F)cc3)nn3cc(C(F)(F)F)ccc23)n1"
measurement_label = "inhibition"
numeric_result = -0.61

[[record]]
compound = "COC(=O)Nc1nc2cc(Oc3ccc(NC(=O)Nc4cccc(Br)c4)cc3)ccc2[nH]1"
measurement_label = "inhibition"
numeric_result = 49.3

[[record]]
compound = "COc1ccc(-c2nn3ncccc3c2-c2ccnc(Nc3cccc(C(F)(F)F)c3)n2)cc1"
measurement_label = "inhibition"
numeric_result = 1.14

[[record]]
compound = "FC(F)(F)c1ccc(-c2nn3ncccc3c2-c2ccnc(Nc3ccc4c(c3)OCCO4)n2)cc1"
measurement_label = "inhibition"
numeric_result = 15

[[record]]
compound = "COC(=O)c1ccc2c(c1)C(=Cc1cc(Br)c(O)c(Br)c1)C(=O)N2"
measurement_label = "inhibition"
numeric_result = 8.06

[[record]]
compound = "O=C(Nc1ccc(Oc2ccc3[nH]c(NC(=O)c4ccco4)nc3c2)cc1)Nc1cc(C(F)(F)F)ccc1F"
measurement_label = "inhibition"
numeric_result = 83.5

